Please go through the items and note down their RLM Metabolism (H.L. min).
experiment-description: RLM metabolism (half-life)
Format: in vitro ADME
measurement-parameters: rat liver microsomes half-life
Quick reminder: number only, in min, skip the unit.

Query: Item `C[C@](O)(Cn1cc(F)cn1)C(=O)Nc1cnc(C#N)c(C(F)(F)F)c1` has what recorded RLM Metabolism (H.L. min)?
Reply: 78

Query: Item `C[C@](O)(Cn1cc(C#N)cn1)C(=O)Nc1cnc(C#N)c(C(F)(F)F)c1` has what recorded RLM Metabolism (H.L. min)?
Reply: 84

Query: Item `C[C@](O)(Cn1cc(Cl)c(Br)n1)C(=O)Nc1ccc(C#N)c(C(F)(F)F)c1` has what recorded RLM Metabolism (H.L. min)?
Reply: 300

Query: Item `C[C@](O)(Cn1cc(C(F)(F)F)cn1)C(=O)Nc1ccc(C#N)c(C(F)(F)F)c1` has what recorded RLM Metabolism (H.L. min)?
Reply: 400

Query: Item `C[C@](O)(Cn1cc(Br)c(F)n1)C(=O)Nc1ccc(C#N)c(C(F)(F)F)c1` has what recorded RLM Metabolism (H.L. min)?
Reply: 400

Query: Item `C[C@](O)(Cn1cc(C#N)cn1)C(=O)Nc1ccc(C#N)c(C(F)(F)F)c1` has what recorded RLM Metabolism (H.L. min)?
Reply: 86

====

experiment-description: HLM metabolism (half-life)
Type: in vitro ADME, human
measurement-parameters: human liver microsomes half-life
measure-name: HLM Metabolism (H.L. min)
Quick reminder: number only, in min, skip the unit.

Query: Item `C[C@](O)(Cn1cc(Cl)c(Br)n1)C(=O)Nc1ccc(C#N)c(C(F)(F)F)c1` has what recorded HLM Metabolism (H.L. min)?
Reply: 319

Query: Item `C[C@](O)(Cn1cc(C#N)cn1)C(=O)Nc1ccc(C#N)c(C(F)(F)F)c1` has what recorded HLM Metabolism (H.L. min)?
Reply: 400

Query: Item `C[C@](O)(Cn1cc(F)cn1)C(=O)Nc1cnc(C#N)c(C(F)(F)F)c1` has what recorded HLM Metabolism (H.L. min)?
Reply: 82

Query: Item `C[C@](O)(Cn1cc(C(F)(F)F)cn1)C(=O)Nc1ccc(C#N)c(C(F)(F)F)c1` has what recorded HLM Metabolism (H.L. min)?
Reply: 400

Query: Item `C[C@](O)(Cn1ccc2cc(F)ccc21)C(=O)Nc1ccc(C#N)c(C(F)(F)F)c1` has what recorded HLM Metabolism (H.L. min)?
Reply: 6

Query: Item `C[C@](O)(Cn1cc(Br)c(F)n1)C(=O)Nc1ccc(C#N)c(C(F)(F)F)c1` has what recorded HLM Metabolism (H.L. min)?
Reply: 138

====

target: AR wildtype (wt) (Homo sapiens, UniProt P10275)
Sequence (P10275 whole entry): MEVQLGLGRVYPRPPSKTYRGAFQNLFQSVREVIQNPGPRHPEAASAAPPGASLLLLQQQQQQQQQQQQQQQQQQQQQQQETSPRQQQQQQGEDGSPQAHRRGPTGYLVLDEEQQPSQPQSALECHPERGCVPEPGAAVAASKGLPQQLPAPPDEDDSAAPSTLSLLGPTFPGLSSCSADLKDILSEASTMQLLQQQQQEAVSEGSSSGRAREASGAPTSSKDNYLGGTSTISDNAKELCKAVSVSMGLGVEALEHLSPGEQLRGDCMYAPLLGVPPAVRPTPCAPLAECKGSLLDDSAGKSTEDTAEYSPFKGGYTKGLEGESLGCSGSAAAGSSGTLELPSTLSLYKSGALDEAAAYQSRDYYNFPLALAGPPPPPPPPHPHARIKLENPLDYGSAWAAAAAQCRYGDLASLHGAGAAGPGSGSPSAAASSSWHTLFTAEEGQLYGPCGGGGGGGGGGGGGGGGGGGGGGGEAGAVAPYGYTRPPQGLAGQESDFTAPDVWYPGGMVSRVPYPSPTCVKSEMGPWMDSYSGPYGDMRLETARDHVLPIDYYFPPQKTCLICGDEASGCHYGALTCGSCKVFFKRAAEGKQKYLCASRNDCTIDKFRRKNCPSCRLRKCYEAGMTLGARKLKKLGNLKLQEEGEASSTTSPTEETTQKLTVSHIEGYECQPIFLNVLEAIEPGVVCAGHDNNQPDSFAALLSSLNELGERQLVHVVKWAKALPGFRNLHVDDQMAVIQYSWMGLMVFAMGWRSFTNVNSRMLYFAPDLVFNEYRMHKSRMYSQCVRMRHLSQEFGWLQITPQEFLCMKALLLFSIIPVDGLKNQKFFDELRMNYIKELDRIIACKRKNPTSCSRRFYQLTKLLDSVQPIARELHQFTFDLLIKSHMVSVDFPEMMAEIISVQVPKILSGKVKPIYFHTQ
experiment-description: Transactivation assay with wt AR (GRE-LUC luciferase)
measure-name: IC50 (nM)
Quick reminder: number only, in nM, skip the unit.

Query: Entry `C[C@@H](Cn1cc(F)cn1)NC(=O)c1ccc(C#N)c(C(F)(F)F)c1` , system AR wildtype (wt) (Homo sapiens, UniProt P10275): what IC50 was measured?
Reply: 417
